Source listed as patent US6306853A.

# Tested on: VCR resistant murine leukemia (P388/VCR) cells
# protocol: In vivo overcoming of resistance in VCR resistant murine leukemia (P388/VCR) bearing mice, etoposide with compound 20 mg/kg
# Design: species or system CDF1 female mice
# measurement-setup: VP-16 3 mg/kg + compound 20 mg/kg, i.v. once per day for 5 days
assay-endpoint: Average days of survival (days)
// return numeric value only (unit: days, not printed)

Solved entries (count: 6):
CCOC(=O)C1=C(c2ccc(-n3c(C)nc4cnccc43)cc2)NC(C)=C(C(=O)OCC#Cc2cccnc2)C1C=C1c2ccccc2C2C(c3ccccc31)C2(F)F (stereo not shown) [Compound 67] = 14.3
CCOC(=O)C1=C(c2ccc(-n3c(C)nc4cnccc43)cc2)NC(C)=C(C(=O)OCC#Cc2cccnc2)C1/C=C/c1ccco1 (stereo not shown) [Compound 16] = 15.0
CCOC(=O)C1=C(c2ccc(-n3c(C)nc4cnccc43)cc2)NC(C)=C(C(=O)OCC#Cc2cccnc2)C1CCc1ccccc1Cl (stereo not shown) [Compound 11] = 15.8
CCOC(=O)C1=C(c2ccc(-n3c(C)nc4cnccc43)cc2)NC(C)=C(C(=O)OCC#Cc2cncc3ccccc23)C1/C=C/c1ccccc1 (stereo not shown) [Compound 20] = 14.7
CCOC(=O)C1=C(c2ccc(-n3c(C)nc4cnccc43)cc2)NC(C)=C(C(=O)OCC#Cc2cccnc2)C1/C=C/c1ccccc1OC (stereo not shown) [Compound 14] = 15.7
CCOC(=O)C1=C(c2ccc(-n3c(C)nc4cnccc43)cc2)NC(C)=C(C(=O)OCC#Cc2cccnc2)C1CCc1ccsc1 (stereo not shown) [Compound 17] = 13.4

Prompt: Request the reported Average days of survival associated with CCOC(=O)C1=C(c2ccc(-n3c(C)nc4cnccc43)cc2)NC(C)=C(C(=O)OCC#Cc2cccnc2)C1Cc1ccccc1 (stereo not shown) [Compound 6]
Response: 16.0
